Recorded EC50 by entry
Measured on: [V13′T]α10 nAChRs (Homo sapiens, UniProt Q9GZZ6, V280T)
Sequence (Q9GZZ6 25-450 V280T limits assumed): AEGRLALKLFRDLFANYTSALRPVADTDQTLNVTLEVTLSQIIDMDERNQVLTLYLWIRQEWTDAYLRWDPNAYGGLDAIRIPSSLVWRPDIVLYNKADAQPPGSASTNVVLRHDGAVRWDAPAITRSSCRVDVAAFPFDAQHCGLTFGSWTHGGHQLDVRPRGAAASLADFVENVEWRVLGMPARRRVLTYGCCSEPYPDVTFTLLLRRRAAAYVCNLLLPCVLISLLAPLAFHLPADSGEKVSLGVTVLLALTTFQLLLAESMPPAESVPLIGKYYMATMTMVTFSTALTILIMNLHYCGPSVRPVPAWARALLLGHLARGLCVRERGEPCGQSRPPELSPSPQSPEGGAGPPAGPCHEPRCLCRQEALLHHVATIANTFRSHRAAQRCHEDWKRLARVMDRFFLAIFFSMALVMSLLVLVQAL
Procedure details: cell-based
Measured metric: EC50 (µM)

| Molecular string | Readout number |
| --- | --- |
| C[N+](C)(C)CCO | 200 |
| CN1CCC[C@H]1c1cccnc1 | 350 |

Cited source: paper PMC11850127
